- TEST CONDITIONS: in methanol, 288.15 K
EXPERIMENTAL ENDPOINT: solubility (mole fraction)
Answers are plain numbers.

IN: Indicate its recorded solubility (mole fraction); the compound in question is CO/C=C(/C(=O)OC)c1ccccc1Oc1cc(Oc2ccccc2C#N)ncn1
OUT: 0.00135

###

- TEST CONDITIONS: in ethanol, 328.15 K
EXPERIMENTAL ENDPOINT: solubility (mole fraction)

IN: Indicate its recorded solubility (mole fraction); the compound in question is CO/C=C(/C(=O)OC)c1ccccc1Oc1cc(Oc2ccccc2C#N)ncn1
OUT: 0.00786

###

- TEST CONDITIONS: in isopropanol, 288.15 K
EXPERIMENTAL ENDPOINT: solubility (mole fraction)

IN: Indicate its recorded solubility (mole fraction); the molecule in question is CO/C=C(/C(=O)OC)c1ccccc1Oc1cc(Oc2ccccc2C#N)ncn1
OUT: 0.000339

###

- TEST CONDITIONS: in ethanol, 318.15 K
EXPERIMENTAL ENDPOINT: solubility (mole fraction)

IN: Indicate its recorded solubility (mole fraction); the molecule in question is CO/C=C(/C(=O)OC)c1ccccc1Oc1cc(Oc2ccccc2C#N)ncn1
OUT: 0.00422

###

- TEST CONDITIONS: in methanol, 323.15 K
EXPERIMENTAL ENDPOINT: solubility (mole fraction)
Numbers only.

IN: Indicate its recorded solubility (mole fraction); the compound in question is CO/C=C(/C(=O)OC)c1ccccc1Oc1cc(Oc2ccccc2C#N)ncn1
OUT: 0.0096

###

- TEST CONDITIONS: in n-butanol, 308.15 K
EXPERIMENTAL ENDPOINT: solubility (mole fraction)
Answers are plain numbers.

IN: Indicate its recorded solubility (mole fraction); the molecule in question is CO/C=C(/C(=O)OC)c1ccccc1Oc1cc(Oc2ccccc2C#N)ncn1
OUT: 0.00185

###

- TEST CONDITIONS: in n-butanol, 288.15 K
EXPERIMENTAL ENDPOINT: solubility (mole fraction)

IN: Indicate its recorded solubility (mole fraction); the molecule in question is CO/C=C(/C(=O)OC)c1ccccc1Oc1cc(Oc2ccccc2C#N)ncn1
OUT: 0.000514

###

- TEST CONDITIONS: in methanol, 313.15 K
EXPERIMENTAL ENDPOINT: solubility (mole fraction)
Numbers only.

IN: Indicate its recorded solubility (mole fraction); the compound in question is CO/C=C(/C(=O)OC)c1ccccc1Oc1cc(Oc2ccccc2C#N)ncn1
OUT: 0.00497

###

- TEST CONDITIONS: in n-propanol, 293.15 K
EXPERIMENTAL ENDPOINT: solubility (mole fraction)
Answers are plain numbers.

IN: Indicate its recorded solubility (mole fraction); the compound in question is CO/C=C(/C(=O)OC)c1ccccc1Oc1cc(Oc2ccccc2C#N)ncn1
OUT: 0.000829

###

- TEST CONDITIONS: in ethyl acetate, 288.15 K
EXPERIMENTAL ENDPOINT: solubility (mole fraction)

IN: Indicate its recorded solubility (mole fraction); the compound in question is CO/C=C(/C(=O)OC)c1ccccc1Oc1cc(Oc2ccccc2C#N)ncn1
OUT: 0.0246

###

- TEST CONDITIONS: in n-propanol, 298.15 K
EXPERIMENTAL ENDPOINT: solubility (mole fraction)

IN: Indicate its recorded solubility (mole fraction); the molecule in question is CO/C=C(/C(=O)OC)c1ccccc1Oc1cc(Oc2ccccc2C#N)ncn1
OUT: 0.00108

###

- TEST CONDITIONS: in isopropanol, 323.15 K
EXPERIMENTAL ENDPOINT: solubility (mole fraction)
Numbers only.

IN: Indicate its recorded solubility (mole fraction); the compound in question is CO/C=C(/C(=O)OC)c1ccccc1Oc1cc(Oc2ccccc2C#N)ncn1
OUT: 0.00358

###

- TEST CONDITIONS: in isopropanol, 308.15 K
EXPERIMENTAL ENDPOINT: solubility (mole fraction)
Give bare numbers.

IN: Indicate its recorded solubility (mole fraction); the molecule in question is CO/C=C(/C(=O)OC)c1ccccc1Oc1cc(Oc2ccccc2C#N)ncn1
OUT: 0.00134

###

- TEST CONDITIONS: in methanol, 308.15 K
EXPERIMENTAL ENDPOINT: solubility (mole fraction)
Numbers only.

IN: Indicate its recorded solubility (mole fraction); the molecule in question is CO/C=C(/C(=O)OC)c1ccccc1Oc1cc(Oc2ccccc2C#N)ncn1
OUT: 0.00368

###

- TEST CONDITIONS: in isobutanol, 318.15 K
EXPERIMENTAL ENDPOINT: solubility (mole fraction)

IN: Indicate its recorded solubility (mole fraction); the compound in question is CO/C=C(/C(=O)OC)c1ccccc1Oc1cc(Oc2ccccc2C#N)ncn1
OUT: 0.00324

###

- TEST CONDITIONS: in n-propanol, 323.15 K
EXPERIMENTAL ENDPOINT: solubility (mole fraction)

IN: Indicate its recorded solubility (mole fraction); the compound in question is CO/C=C(/C(=O)OC)c1ccccc1Oc1cc(Oc2ccccc2C#N)ncn1
OUT: 0.00527

###

- TEST CONDITIONS: in n-propanol, 303.15 K
EXPERIMENTAL ENDPOINT: solubility (mole fraction)

IN: Indicate its recorded solubility (mole fraction); the compound in question is CO/C=C(/C(=O)OC)c1ccccc1Oc1cc(Oc2ccccc2C#N)ncn1
OUT: 0.00162

###

- TEST CONDITIONS: in methanol, 318.15 K
EXPERIMENTAL ENDPOINT: solubility (mole fraction)
Answers are plain numbers.

IN: Indicate its recorded solubility (mole fraction); the molecule in question is CO/C=C(/C(=O)OC)c1ccccc1Oc1cc(Oc2ccccc2C#N)ncn1
OUT: 0.00683

###

- TEST CONDITIONS: in n-butanol, 328.15 K
EXPERIMENTAL ENDPOINT: solubility (mole fraction)
Numbers only.

IN: Indicate its recorded solubility (mole fraction); the molecule in question is CO/C=C(/C(=O)OC)c1ccccc1Oc1cc(Oc2ccccc2C#N)ncn1
OUT: 0.00635

###

- TEST CONDITIONS: in ethanol, 293.15 K
EXPERIMENTAL ENDPOINT: solubility (mole fraction)
Answers are plain numbers.

IN: Indicate its recorded solubility (mole fraction); the molecule in question is CO/C=C(/C(=O)OC)c1ccccc1Oc1cc(Oc2ccccc2C#N)ncn1
OUT: 0.000923

###

- TEST CONDITIONS: in n-butanol, 303.15 K
EXPERIMENTAL ENDPOINT: solubility (mole fraction)
One number for each entry.

IN: Indicate its recorded solubility (mole fraction); the molecule in question is CO/C=C(/C(=O)OC)c1ccccc1Oc1cc(Oc2ccccc2C#N)ncn1
OUT: 0.00149

###

- TEST CONDITIONS: in methanol, 303.15 K
EXPERIMENTAL ENDPOINT: solubility (mole fraction)
Numbers only.

IN: Indicate its recorded solubility (mole fraction); the compound in question is CO/C=C(/C(=O)OC)c1ccccc1Oc1cc(Oc2ccccc2C#N)ncn1
OUT: 0.0027

###

- TEST CONDITIONS: in n-butanol, 323.15 K
EXPERIMENTAL ENDPOINT: solubility (mole fraction)
Answers are plain numbers.

IN: Indicate its recorded solubility (mole fraction); the compound in question is CO/C=C(/C(=O)OC)c1ccccc1Oc1cc(Oc2ccccc2C#N)ncn1
OUT: 0.00476

###

- TEST CONDITIONS: in n-butanol, 293.15 K
EXPERIMENTAL ENDPOINT: solubility (mole fraction)

IN: Indicate its recorded solubility (mole fraction); the compound in question is CO/C=C(/C(=O)OC)c1ccccc1Oc1cc(Oc2ccccc2C#N)ncn1
OUT: 0.000733

###

- TEST CONDITIONS: in isopropanol, 313.15 K
EXPERIMENTAL ENDPOINT: solubility (mole fraction)
One number for each entry.

IN: Indicate its recorded solubility (mole fraction); the compound in question is CO/C=C(/C(=O)OC)c1ccccc1Oc1cc(Oc2ccccc2C#N)ncn1
OUT: 0.00183

###

- TEST CONDITIONS: in ethanol, 308.15 K
EXPERIMENTAL ENDPOINT: solubility (mole fraction)
Give bare numbers.

IN: Indicate its recorded solubility (mole fraction); the compound in question is CO/C=C(/C(=O)OC)c1ccccc1Oc1cc(Oc2ccccc2C#N)ncn1
OUT: 0.0022

###

- TEST CONDITIONS: in isobutanol, 293.15 K
EXPERIMENTAL ENDPOINT: solubility (mole fraction)
One number for each entry.

IN: Indicate its recorded solubility (mole fraction); the compound in question is CO/C=C(/C(=O)OC)c1ccccc1Oc1cc(Oc2ccccc2C#N)ncn1
OUT: 0.000628

###

- TEST CONDITIONS: in isopropanol, 303.15 K
EXPERIMENTAL ENDPOINT: solubility (mole fraction)
Give bare numbers.

IN: Indicate its recorded solubility (mole fraction); the compound in question is CO/C=C(/C(=O)OC)c1ccccc1Oc1cc(Oc2ccccc2C#N)ncn1
OUT: 0.00102
